Every entry's value here was drawn from ChEMBL document CHEMBL2010722.

A collection of compounds and their measured IC50
Molecular target: Dual specificity tyrosine-phosphorylation-regulated kinase 2 (Homo sapiens, UniProt Q92630)
Sequence (Q92630 whole entry): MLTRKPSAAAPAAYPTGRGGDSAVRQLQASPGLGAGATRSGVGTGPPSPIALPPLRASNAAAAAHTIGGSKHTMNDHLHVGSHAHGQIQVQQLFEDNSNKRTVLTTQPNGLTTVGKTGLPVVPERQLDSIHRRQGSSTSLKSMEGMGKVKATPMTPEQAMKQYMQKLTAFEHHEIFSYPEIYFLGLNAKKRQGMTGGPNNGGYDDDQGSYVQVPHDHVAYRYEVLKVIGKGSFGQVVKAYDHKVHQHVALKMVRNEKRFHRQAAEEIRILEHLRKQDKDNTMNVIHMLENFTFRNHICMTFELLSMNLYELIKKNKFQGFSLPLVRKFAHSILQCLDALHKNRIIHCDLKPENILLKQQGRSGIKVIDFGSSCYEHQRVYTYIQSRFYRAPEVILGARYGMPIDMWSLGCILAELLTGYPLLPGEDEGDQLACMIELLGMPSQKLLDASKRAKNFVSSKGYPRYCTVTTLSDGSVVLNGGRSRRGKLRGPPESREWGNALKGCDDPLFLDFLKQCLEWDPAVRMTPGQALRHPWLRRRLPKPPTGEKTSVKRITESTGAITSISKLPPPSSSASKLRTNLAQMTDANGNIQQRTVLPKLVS

Check out these entries, answers already filled in.
[
  {
    "structure smiles": "Cc1nccc2c3ccc(O)cc3n(CCCCN)c12",
    "IC50": "> 10 µM"
  },
  {
    "structure smiles": "NCCCCn1c2cc(O)ccc2c2ccnc(C(F)(F)F)c21",
    "IC50": "8.5 µM"
  },
  {
    "structure smiles": "COc1ccc2c3ccnc(C(C)C)c3n(CCCCN)c2c1",
    "IC50": "> 10 µM"
  },
  {
    "structure smiles": "COc1ccc2c3ccnc(C)c3n(CCCCN(C)C)c2c1",
    "IC50": "> 10 µM"
  },
  {
    "structure smiles": "CCc1nccc2c3ccc(OC)cc3n(CCCCN)c12",
    "IC50": "> 10 µM"
  },
  {
    "structure smiles": "COc1cccc2c1c1ccnc(C)c1n2CCCCN",
    "IC50": "7 µM"
  }
]

**Q:** Find the recorded IC50 belonging to "Cc1nccc2c3cc4c(cc3n(CCCCN)c12)OCO4" and report it.
**A:** 4.8 µM

**Q:** Repeat with "COc1ccc2c(c1)c1ccnc(C)c1n2CCCCN"
**A:** 4.9 µM

**Q:** What about this compound? "COc1ccc2c3ccncc3n(CCCCN)c2c1"
**A:** > 10 µM

**Q:** # iterate: "Cc1nccc2c3ccc(F)cc3n(CCCCN)c12"
**A:** > 10 µM

**Q:** Now the compound "COc1ccc2c3ccnc(C)c3n(CCCCN)c2c1Cl"
**A:** 8 µM

**Q:** Another compound to look at: "CNCCCCn1c2cc(OC)ccc2c2ccnc(C)c21"
**A:** > 10 µM

**Q:** And what about the compound "COc1ccc2c3ccnc(C)c3n(CCCCN)c2c1" ?
**A:** > 10 µM

----------
target: Serine/threonine-protein kinase haspin (Homo sapiens)
Sequence (Q8TF76 whole entry): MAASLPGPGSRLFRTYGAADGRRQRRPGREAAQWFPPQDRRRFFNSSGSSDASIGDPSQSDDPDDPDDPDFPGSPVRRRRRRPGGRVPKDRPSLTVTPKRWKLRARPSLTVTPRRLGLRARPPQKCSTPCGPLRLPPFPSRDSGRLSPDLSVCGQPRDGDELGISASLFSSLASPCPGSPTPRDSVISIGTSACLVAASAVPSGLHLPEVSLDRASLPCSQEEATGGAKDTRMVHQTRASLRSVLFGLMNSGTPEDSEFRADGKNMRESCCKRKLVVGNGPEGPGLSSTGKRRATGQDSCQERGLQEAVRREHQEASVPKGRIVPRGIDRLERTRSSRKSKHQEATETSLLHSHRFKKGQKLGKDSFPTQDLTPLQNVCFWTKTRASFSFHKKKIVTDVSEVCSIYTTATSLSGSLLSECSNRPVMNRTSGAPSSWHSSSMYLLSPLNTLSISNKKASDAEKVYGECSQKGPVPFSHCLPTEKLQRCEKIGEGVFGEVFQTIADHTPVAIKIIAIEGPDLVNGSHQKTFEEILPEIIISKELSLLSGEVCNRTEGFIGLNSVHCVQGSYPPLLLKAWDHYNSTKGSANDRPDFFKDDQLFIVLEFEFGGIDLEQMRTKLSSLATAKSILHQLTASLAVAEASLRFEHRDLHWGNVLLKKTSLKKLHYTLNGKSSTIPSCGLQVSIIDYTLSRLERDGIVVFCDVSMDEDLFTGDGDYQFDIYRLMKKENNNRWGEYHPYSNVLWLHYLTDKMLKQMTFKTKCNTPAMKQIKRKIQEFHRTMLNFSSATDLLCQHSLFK
Hi! Could you tag entries with IC50 below 700 nM as class 1, and those at or above as class 0? Much appreciated.

Worked examples, 4 compounds total:
[
  {
    "structure smiles": "Cc1nccc2c3ccc(O)cc3n(CCCCN)c12",
    "category label": "class 1"
  },
  {
    "structure smiles": "Cc1[nH]ccc2c1[nH]c1cc(=O)ccc12",
    "category label": "class 0"
  },
  {
    "structure smiles": "COc1ccc2c(c1)c1ccnc(C)c1n2CCCCN",
    "category label": "class 0"
  },
  {
    "structure smiles": "COc1cccc2c1c1ccnc(C)c1n2CCCCN",
    "category label": "class 0"
  }
]

Next:
**Q:** Quick check: does "CCc1nccc2c3ccc(OC)cc3n(CCCCN)c12" have IC50 under 700 nM?
**A:** class 1
